# System: antibodies to C. abortus
# assay-text: ELISA, serological reactivity of biotinylated peptides against serum dilutions (Tables 1 and 2)
# Type: binding, sheep
# setup-conditions: serum dilution 1/200
Ends that are not written are not given here. * marks the point of attachment. Biotin = O=C1N[C@H]2[C@H](CS[C@H]2CCCCC(=O)*)N1
Listing: Net Optical Density of selected substances
Please reply with the value in numeric form only.

Example cases with answers are listed next.
substance: Biotin-KKKKKKGSSIAAD [Compound 2-2]
value-measured: 0.786

substance: Biotin-KGSSIAAD [Compound 2-1]
value-measured: 0.000

substance: Biotin-KKKKKKKKKKKGSSIAAD [Compound 2-3]
value-measured: 1.133

substance: Biotin-CLIGVKGSSAAD [Compound 2-4]
value-measured: 1.241

substance: Biotin-KKKKKGLIGVKGSS L AAD [Compound 2-11]
value-measured: 1.230

The record that follows has no Net Optical Density shown yet.
Which Net Optical Density is reported for this substance? Biotin-KASSAAFNLVGLIVKGSSIAADQ [Compound 2/L] 1.885

====

Listing: Net Optical Density of selected substances
# Test system: antibodies to C. abortus
# assay-text: ELISA, serological reactivity of biotinylated peptides against serum dilutions (Tables 1 and 2)
# Type: binding, sheep
# setup-conditions: serum dilution 1/1600
Ends that are not written are not given here. * marks the point of attachment. Biotin = O=C1N[C@H]2[C@H](CS[C@H]2CCCCC(=O)*)N1

Example cases with answers are listed next.
substance: Biotin-KKKKKGLIGVKGSS L AAD [Compound 2-11]
reported-metric: Net Optical Density
value-measured: 0.133

substance: Biotin-KASSAAFNLVGLIVKGSSIAADQ [Compound 2/L]
reported-metric: Net Optical Density
value-measured: 0.263

substance: Biotin-KKKKKKKKKKKGSSIAAD [Compound 2-3]
reported-metric: Net Optical Density
value-measured: 0.095

substance: Biotin-CLIGVKGSSAAD [Compound 2-4]
reported-metric: Net Optical Density
value-measured: 0.133

Which Net Optical Density is reported for this substance? Biotin-KGSSIAAD [Compound 2-1] 0.000

Which Net Optical Density is reported for this substance? Biotin-KKKKKKGSSIAAD [Compound 2-2] 0.068

Which Net Optical Density is reported for this substance? Biotin-KKKKKGLIGVKGSSIAAD [Compound 2-5] 0.156

Entry source: patent US20030186887A1
